Assay: chemical genetic growth profiling, strain panel (AID 1159580);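 note: tested at 20 µM; growth read once vehicle control cultures reached saturation at 30 °C; lower values mean less growth of the strain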
Condition Notes: S. cerevisiae deletion strains, growth OD, locus YOL136C, strain PFK27, active compounds read low
The campaign covered roughly 5,500 compounds. About 2,000 (36%) were called active. Another 18% or so got no clear call; they are omitted. This is one part of the list.
So basically: is normalized growth under 0.4? Then true. Not under? Then false.

{"columns": ["Compound", "Cat"],
 "data": [
  ["Nc1ccccc1SCc1c(Cl)cccc1Cl", "false"],
  ["COc1cc(NC(=S)N(C)C)c(OC)cc1Cl", "false"],
  ["N#CC(C#N)=C(SCc1c(Cl)cccc1Cl)SCc1c(Cl)cccc1Cl", "false"],
  ["CSC1=NNC(c2nn(C)cc2Cl)S1 (configuration not stated)", "true"],
  ["COc1ccc(NNC(=O)c2sc3ccccc3c2Cl)cc1", "false"],
  ["Cc1ccc(Sc2c(Sc3ccc(C)cc3)c(=O)c2=O)cc1", "true"],
  ["O=c1c(Sc2ccc(Cl)cc2)c(Sc2ccc(Cl)cc2)c1=O", "true"]
]}
